biological target: rTAAR1(N7.39Y) (Rattus norvegicus, UniProt Q923Y9, N287Y); assay: cAMP agonist activity assay, rTAAR1; conditions: read-out: EC50 ± SEM
Sequence (Q923Y9 whole entry N287Y): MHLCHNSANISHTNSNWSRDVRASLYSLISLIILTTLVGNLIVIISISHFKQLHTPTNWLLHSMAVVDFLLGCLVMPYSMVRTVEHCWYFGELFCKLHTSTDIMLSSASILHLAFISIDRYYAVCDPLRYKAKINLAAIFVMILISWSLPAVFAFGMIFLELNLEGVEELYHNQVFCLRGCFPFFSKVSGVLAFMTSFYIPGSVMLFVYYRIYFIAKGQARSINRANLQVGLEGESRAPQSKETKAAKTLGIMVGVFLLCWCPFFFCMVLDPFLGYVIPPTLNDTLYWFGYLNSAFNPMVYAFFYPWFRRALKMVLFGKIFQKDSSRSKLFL
Measurement Label: EC50 (nM)
Your answer is read as nM, so omit the unit and give the number.

GET /values?item= "NCCc1ccc(Oc2ccc(O)cc2)c(I)c1" &system= rTAAR1(N7.39Y) (Rattus norvegicus, UniProt Q923Y9, N287Y) returns EC50: 135

* * *

biological target: rTAAR1(M6.55T/N7.39Y) (Rattus norvegicus, UniProt Q923Y9, M268T/N287Y); test: cAMP agonist activity assay, rTAAR1; settings: read-out: EC50 ± SEM
Measurement Label: pEC50
Scale note: pEC50 = -log10(concentration in M).

Briefly, pEC50 measured for "NCCc1ccc(Oc2ccc(O)cc2)c(I)c1" : 7.05
